- test-target: Estrogen receptor (Mus musculus) (UniProt O08537+P19785)
- Sequence (O08537 whole entry, looked up): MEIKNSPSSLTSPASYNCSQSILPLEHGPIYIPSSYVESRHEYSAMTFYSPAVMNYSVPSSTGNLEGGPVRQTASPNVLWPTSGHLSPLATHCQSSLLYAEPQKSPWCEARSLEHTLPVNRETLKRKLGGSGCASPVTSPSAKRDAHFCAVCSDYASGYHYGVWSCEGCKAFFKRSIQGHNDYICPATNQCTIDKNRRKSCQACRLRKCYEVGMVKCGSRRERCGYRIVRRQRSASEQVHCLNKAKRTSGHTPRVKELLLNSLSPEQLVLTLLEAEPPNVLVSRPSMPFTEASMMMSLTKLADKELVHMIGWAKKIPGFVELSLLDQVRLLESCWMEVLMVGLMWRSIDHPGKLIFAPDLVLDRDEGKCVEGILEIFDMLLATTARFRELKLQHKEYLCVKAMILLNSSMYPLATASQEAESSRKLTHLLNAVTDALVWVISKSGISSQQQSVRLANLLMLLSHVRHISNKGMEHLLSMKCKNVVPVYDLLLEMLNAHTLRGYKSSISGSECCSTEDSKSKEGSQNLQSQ
- Sequence (P19785 whole entry, looked up): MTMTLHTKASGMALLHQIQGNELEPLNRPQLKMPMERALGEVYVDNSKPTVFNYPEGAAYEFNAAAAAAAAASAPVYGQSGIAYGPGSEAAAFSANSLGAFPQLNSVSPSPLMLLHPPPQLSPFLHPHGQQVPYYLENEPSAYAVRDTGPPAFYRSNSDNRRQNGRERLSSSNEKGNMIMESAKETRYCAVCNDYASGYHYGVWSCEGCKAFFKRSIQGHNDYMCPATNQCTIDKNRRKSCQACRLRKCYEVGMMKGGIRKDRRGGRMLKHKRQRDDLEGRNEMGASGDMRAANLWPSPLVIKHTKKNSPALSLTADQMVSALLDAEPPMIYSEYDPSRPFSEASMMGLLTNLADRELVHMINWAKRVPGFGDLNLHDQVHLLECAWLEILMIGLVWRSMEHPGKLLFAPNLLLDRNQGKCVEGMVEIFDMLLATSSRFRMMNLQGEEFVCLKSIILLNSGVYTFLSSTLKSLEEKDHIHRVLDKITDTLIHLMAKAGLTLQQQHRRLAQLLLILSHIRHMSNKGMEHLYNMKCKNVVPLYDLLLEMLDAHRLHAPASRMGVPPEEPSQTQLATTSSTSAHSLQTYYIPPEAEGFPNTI
- procedure-details: In vivo uterotrophic effect in hormone-dependent MXT mammary tumor bearing BDF1 mice at 8.0 mg/kg dose
- Type: functional, organism-based
- Parameters: dose 8 mg/kg
measurement-label: T/C

| smiles-input | T/C |
| --- | --- |
| CC/C(=C(\c1ccccc1)c1cccc(OC(C)=O)c1)c1ccc(OC(C)=O)cc1 | 96% |

Exam item: Reported T/C for `CC/C(=C(/c1ccccc1)c1cccc(OC(C)=O)c1)c1ccc(OC(C)=O)cc1` : what is it?
Marked response: 175%

Exam item: Please report the recorded T/C for `CC/C(=C(\c1ccccc1)c1ccc(OC(C)=O)cc1)c1cccc(OC(C)=O)c1` .
Marked response: 193%

###

- Tested on: Mus musculus
- procedure-details: In vivo inhibition of hormone-dependent MXT mammary tumor in BDF1 mouse at 8.0 mg/kg dose
- Type: functional
measurement-label: T/C (%)
Provide the reading as a plain figure in %.

Solved entries:
| smiles-input | T/C / % |
| --- | --- |
| CC/C(=C(\c1ccccc1)c1ccc(OC(C)=O)cc1)c1cccc(OC(C)=O)c1 | 7 |
| CCC(=C(c1ccc(OC(C)=O)cc1)c1ccc(OC(C)=O)cc1)c1ccccc1 | 7 |
| CC/C(=C(/c1ccccc1)c1ccc(OC(C)=O)cc1)c1cccc(OC(C)=O)c1 | 1 |
| CC/C(=C(\c1ccccc1)c1cccc(OC(C)=O)c1)c1ccc(OC(C)=O)cc1 | 62 |
| CC/C(=C(\c1ccc(OC(C)=O)cc1)c1cccc(OC(C)=O)c1)c1ccccc1 | 25 |

Then this molecule:
Exam item: Using the record for `CC/C(=C(/c1ccccc1)c1cccc(OC(C)=O)c1)c1ccc(OC(C)=O)cc1` , report its T/C.
Marked response: 2

###

- test-target: Estrogen receptor (Mus musculus) (UniProt O08537+P19785)
- procedure-details: Estrogenic activity in immature mouse using Uterine weight test at 5 ug dose
- Format: functional
measurement-label: Estrogenic effect
Output spec: single numeric token, no unit.

Record excerpt, results attached:
| smiles-input | test-target | Estrogenic effect |
| --- | --- | --- |
| CC/C(=C(/c1ccccc1)c1cccc(OC(C)=O)c1)c1ccc(OC(C)=O)cc1 | Estrogen receptor (Mus musculus) (UniProt O08537+P19785) | 80 |
| CCC(=C(c1ccc(OC(C)=O)cc1)c1ccc(OC(C)=O)cc1)c1ccccc1 | Estrogen receptor (Mus musculus) (UniProt O08537+P19785) | 72 |
| CC/C(=C(\c1ccc(OC(C)=O)cc1)c1cccc(OC(C)=O)c1)c1ccccc1 | Estrogen receptor (Mus musculus) (UniProt O08537+P19785) | 35 |
| CC/C(=C(/c1ccc(OC(C)=O)cc1)c1cccc(OC(C)=O)c1)c1ccccc1 | Estrogen receptor (Mus musculus) (UniProt O08537+P19785) | 15 |
| CC/C(=C(/c1ccccc1)c1ccc(OC(C)=O)cc1)c1cccc(OC(C)=O)c1 | Estrogen receptor (Mus musculus) (UniProt O08537+P19785) | 81 |
| CC/C(=C(\c1ccccc1)c1ccc(OC(C)=O)cc1)c1cccc(OC(C)=O)c1 | Estrogen receptor (Mus musculus) (UniProt O08537+P19785) | 94 |

Then this compound:
Exam item: # query: Estrogenic effect of entry `CC/C(=C(\c1ccccc1)c1cccc(OC(C)=O)c1)c1ccc(OC(C)=O)cc1`
Marked response: 18
